Listing of recorded pH 6.0/7.4 KD by entry.
- assayed.system: T1, monovalent hVISTA-ECD (human VISTA extracellular domain with His tail) (human, UniProt Q9H7M9 33-193)
- T1 construct: analyte flowed over captured antibody; also called huVISTA-His
- T1 sequence (Q9H7M9 other isoform, or with tags, fused parts or gaps limits assumed): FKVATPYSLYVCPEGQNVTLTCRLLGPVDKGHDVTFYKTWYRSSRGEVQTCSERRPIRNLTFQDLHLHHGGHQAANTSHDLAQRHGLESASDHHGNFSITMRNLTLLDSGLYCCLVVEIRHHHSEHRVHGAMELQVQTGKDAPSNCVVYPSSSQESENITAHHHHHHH
- test: SPR
Field format: numeric only.

Past entries and their recorded results:
binder="P1-064490 (41F11_VH_F27EY50EL96E) (antibody, V domains shown, Kabat positions; also called P1-064490-1; P1-064490-2) VH: QVQLVESGGGLVKPGGSLRLSCAASGETFSDYYMSWIRQAPGKGLEWVSEISNSGSPIYYADSVKGRFTISRDNAKNSLYLQMNSLRAEDTAVYYCARDEPGWYFDLWGRGTLVTVSS VL: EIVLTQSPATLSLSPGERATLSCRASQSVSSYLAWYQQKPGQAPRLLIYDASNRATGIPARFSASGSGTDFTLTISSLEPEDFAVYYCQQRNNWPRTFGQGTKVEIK" experimental_value=0.3
binder="P1-065326 (41F11_VH_D31E/Y50W/S55E/L96E/Y100E VK_A64G) (antibody, V domains shown, Kabat positions; also called P1-065326-1) VH: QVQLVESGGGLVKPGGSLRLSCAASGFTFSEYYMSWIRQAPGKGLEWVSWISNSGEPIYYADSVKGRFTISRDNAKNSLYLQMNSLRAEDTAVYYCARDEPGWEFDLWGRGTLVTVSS VL: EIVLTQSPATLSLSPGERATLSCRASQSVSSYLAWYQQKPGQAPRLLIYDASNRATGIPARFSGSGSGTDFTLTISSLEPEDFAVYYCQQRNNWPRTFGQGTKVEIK" experimental_value=0.2
binder="P1-065064 (41F11_LC_Mutant: V29D/A64G/R91T) (antibody, V domains shown, Same printed description as P1-063001 under another ID; also called P1-065064-1) VH: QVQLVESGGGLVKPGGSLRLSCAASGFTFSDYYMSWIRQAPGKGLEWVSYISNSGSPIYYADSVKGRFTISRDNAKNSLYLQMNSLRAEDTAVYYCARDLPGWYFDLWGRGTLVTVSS VL: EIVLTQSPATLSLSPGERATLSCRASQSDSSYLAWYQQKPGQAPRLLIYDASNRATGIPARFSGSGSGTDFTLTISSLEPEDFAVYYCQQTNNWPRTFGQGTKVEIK" experimental_value=3
binder="P1-061528 (41F11 NGS mut VK_A64G/R91A) (antibody, V domains shown, also called P1-061528-2) VH: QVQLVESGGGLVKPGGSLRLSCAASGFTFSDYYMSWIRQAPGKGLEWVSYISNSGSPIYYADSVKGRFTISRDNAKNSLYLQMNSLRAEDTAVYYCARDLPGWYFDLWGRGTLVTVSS VL: EIVLTQSPATLSLSPGERATLSCRASQSVSSYLAWYQQKPGQAPRLLIYDASNRATGIPARFSGSGSGTDFTLTISSLEPEDFAVYYCQQANNWPRTFGQGTKVEIK" experimental_value=3.3

Form field pH 6.0/7.4 KD, entry P1-063125 (41F11_HC_Mutant: T28P/Y50W/S55E/Y100E) (antibody, V domains shown, Kabat positions; also called P1-063125-5) VH: QVQLVESGGGLVKPGGSLRLSCAASGFPFSDYYMSWIRQAPGKGLEWVSWISNSGEPIYYADSVKGRFTISRDNAKNSLYLQMNSLRAEDTAVYYCARDLPGWEFDLWGRGTLVTVSS VL: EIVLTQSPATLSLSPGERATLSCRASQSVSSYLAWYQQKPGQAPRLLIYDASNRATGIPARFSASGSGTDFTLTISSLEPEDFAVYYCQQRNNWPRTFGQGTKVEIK : 0.9

Source: patent US20220073617A1
